Every entry's value here was drawn from patent US20150337042A1.

Listed here: items and their measured KD ratio (Ab1/variant Ab).
# experimental system: T1, truncated wild type EGFR 1-525 (EGFR1 (1-525)-SRGPF-Myc-NMHTG-6His) (human, UniProt P00533 25-525)
# T1 construct: the signal peptide is left out; not shown: Myc tag
# procedure text: SPR (Biacore), antibody captured via anti-human Fc, antigen injected

>  <binder>
Antibody N (AbN) (antibody, V domains shown, Full length IgG1) VH: EVQLQESGPGLVKPSQTLSLTCTVSGYSIGRDFAWNWIRQPPGKGLEWMGYISYSGNTRYQPSLKSRITISRDTSKNQFFLKLNSVTAADTATYYCVTASRGFPYWGQGTLVTVSS VL: DIQMTQSPSSMSVSVGDRVTITCHSSQDITYNVGWLQQKPGKSFKGLIYHGSNLDHGVPSRFSGSGSGTDYTLTISSLQPEDFATYYCVQYDDFPWTFGGGTKLEIK

>  <KD ratio (Ab1/variant Ab)>
642

$$$$
>  <binder>
Antibody J (AbJ) (antibody, V domains shown, Full length IgG1) VH: EVQLQESGPGLVKPSQTLSLTCTVSGYSIGKDFAWNWIRQPPGKGLEWMGYISYSGNTRYQPSLKSRITISRDTSKNQFFLKLNSVTAADTATYYCVTASRGLPYWGQGTLVTVSS VL: DIQMTQSPSSMSVSVGDRVTITCHSSQDITYNIGWLQQKPGKSFKGLIYHGANLDDGVPSRFSGSGSGTDYTLTISSLQPEDFATYYCVQYDEFPWTFGGGTKLEIK

>  <KD ratio (Ab1/variant Ab)>
60.5

$$$$
>  <binder>
Antibody P (AbP) (antibody, V domains shown, Full length IgG1) VH: EVQLQESGPGLVKPSQTLSLTCTVSGYSISHDFAWNWIRQPPGKGLEWMGYISYSGNTRYQPSLKSRITISRDTSKNQFFLKLNSVTAADTATYYCVTASWGLPWWGQGTLVTVSS VL: DIQMTQSPSSMSVSVGDRVTITCHSSQDINMNVGWLQQKPGKSFKGLIYHGAILDDGVPSRFSGSGSGTDYTLTISSLQPEDFATYYCVQYAEFPWTFGGGTKLEIK

>  <KD ratio (Ab1/variant Ab)>
106

$$$$
